- assay text: Particle size and surface potential of siRNA MENDs prepared by t-BuOH injecting method
- Format: physicochemical
- condition summary: siRNA MEND, cationic lipid/cholesterol=70/30, DMG-PEG2000 3%
zeta (mV): recorded values
measurement name: zeta (mV)

compound	output unit	numeric readout
Cc1c(C)c2c(c(C)c1OC(=O)CCC(=O)OCCCCCN(CCSSCCN(CCCCCOC(=O)CCC(=O)Oc1c(C)c(C)c3c(c1C)CCC(C)(CCCC(C)CCCC(C)CCCC(C)C)O3)C(C)C)C(C)C)CCC(C)(CCCC(C)CCCC(C)CCCC(C)C)O2 (centres unmarked) [TS-C5P]	mV	−6.4
Cc1c(C)c2c(c(C)c1OC(=O)CCC(=O)OCC1CCN(CCSSCCN3CCC(COC(=O)CCC(=O)Oc4c(C)c(C)c5c(c4C)CCC(C)(CCCC(C)CCCC(C)CCCC(C)C)O5)CC3)CC1)CCC(C)(CCCC(C)CCCC(C)CCCC(C)C)O2 (centres unmarked) [TS-P4C1]	mV	−11.9
Cc1c(C)c2c(c(C)c1OC(=O)CCC(=O)NCCCN(C)CCSSCCN(C)CCCNC(=O)CCC(=O)Oc1c(C)c(C)c3c(c1C)CCC(C)(CCCC(C)CCCC(C)CCCC(C)C)O3)CCC(C)(CCCC(C)CCCC(C)CCCC(C)C)O2 (centres unmarked) [TSamide-C3M]	mV	7.0
Cc1c(C)c2c(c(C)c1OC(=O)CCC(=O)OCC1CCCCN1CCSSCCN1CCCCC1COC(=O)CCC(=O)Oc1c(C)c(C)c3c(c1C)CCC(C)(CCCC(C)CCCC(C)CCCC(C)C)O3)CCC(C)(CCCC(C)CCCC(C)CCCC(C)C)O2 (centres unmarked) [TS-P2C1]	mV	−12.2
Cc1c(C)c2c(c(C)c1OC(=O)CCC(=O)OCCCCC1CCN(CCSSCCN3CCC(CCCCOC(=O)CCC(=O)Oc4c(C)c(C)c5c(c4C)CCC(C)(CCCC(C)CCCC(C)CCCC(C)C)O5)CC3)CC1)CCC(C)(CCCC(C)CCCC(C)CCCC(C)C)O2 (centres unmarked) [TS-P4C4]	mV	−6.9
Cc1c(C)c2c(c(C)c1OC(=O)CCC(=O)OCC1CCCN(CCSSCCN3CCCC(COC(=O)CCC(=O)Oc4c(C)c(C)c5c(c4C)CCC(C)(CCCC(C)CCCC(C)CCCC(C)C)O5)C3)C1)CCC(C)(CCCC(C)CCCC(C)CCCC(C)C)O2 (centres unmarked) [TS-P3C1]	mV	−9.8
Cc1c(C)c2c(c(C)c1OC(=O)CCC(=O)OCCCN(C)CCSSCCN(C)CCCOC(=O)CCC(=O)Oc1c(C)c(C)c3c(c1C)CCC(C)(CCCC(C)CCCC(C)CCCC(C)C)O3)CCC(C)(CCCC(C)CCCC(C)CCCC(C)C)O2 (centres unmarked) [Example B-2-5]	mV	−9.5
CCN(CCCCOC(=O)CCC(=O)Oc1c(C)c(C)c2c(c1C)CCC(C)(CCCC(C)CCCC(C)CCCC(C)C)O2)CCSSCCN(CC)CCCCOC(=O)CCC(=O)Oc1c(C)c(C)c2c(c1C)CCC(C)(CCCC(C)CCCC(C)CCCC(C)C)O2 (centres unmarked) [TS-C4E]	mV	−9.8
Cc1c(C)c2c(c(C)c1OC(=O)CCC(=O)OCCCC1CCN(CCSSCCN3CCC(CCCOC(=O)CCC(=O)Oc4c(C)c(C)c5c(c4C)CCC(C)(CCCC(C)CCCC(C)CCCC(C)C)O5)CC3)CC1)CCC(C)(CCCC(C)CCCC(C)CCCC(C)C)O2 (centres unmarked) [TS-P4C3]	mV	−6.6
Cc1c(C)c2c(c(C)c1OC(=O)CCCC(=O)OCCCN(C)CCSSCCN(C)CCCOC(=O)CCCC(=O)Oc1c(C)c(C)c3c(c1C)CCC(C)(CCCC(C)CCCC(C)CCCC(C)C)O3)CCC(C)(CCCC(C)CCCC(C)CCCC(C)C)O2 (centres unmarked) [TG-C3M]	mV	−13.0
Cc1c(C)c2c(c(C)c1OC(=O)CCC(=O)OCCC1CCN(CCSSCCN3CCC(CCOC(=O)CCC(=O)Oc4c(C)c(C)c5c(c4C)CCC(C)(CCCC(C)CCCC(C)CCCC(C)C)O5)CC3)CC1)CCC(C)(CCCC(C)CCCC(C)CCCC(C)C)O2 (centres unmarked) [TS-P4C2]	mV	−8.5
